- System under test: C52Hg Brazilian variant (Acro) spike protein (SARS-CoV-2, UniProt P0DTC2 16-1213)
- Assay overview: SPR (Carterra LSA); […]; 1:1 model; […]
Decide using kon alone. Strictly below 500000 M⁻¹ s⁻¹: met. Equal to or above 500000 M⁻¹ s⁻¹: not met.

Record Antibody 1-8 (Fc fusion) EVQLVESGGGLVQPGGSLRLSCAASGRTLSRYTMGWFRQAPGKEREFVASITSGGTTNYADSVKGRFTISADNSKNTAYLQMNSLKPEDTAVYYCAKEDVGKPFDWGQGTLVTVSS : is its kon strictly below 500000 M⁻¹ s⁻¹? not met

Record Antibody 1-15 (Fc fusion) EVQLVESGGGLVQPGGSLRLSCAASGGIFSDMFMGWFRQAPGKEREFVATIDWSGDTAFYADSVKGRFTISADNSKNTAYLQMNSLKPEDTAVYYCAVDLSGDAVYDWGQGTLVTVSS : is its kon strictly below 500000 M⁻¹ s⁻¹? met

Record Antibody 1-7 (Fc fusion) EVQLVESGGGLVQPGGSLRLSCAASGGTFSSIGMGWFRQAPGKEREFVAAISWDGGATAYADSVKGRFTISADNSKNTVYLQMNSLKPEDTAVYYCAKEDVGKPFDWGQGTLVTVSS : is its kon strictly below 500000 M⁻¹ s⁻¹? met

Record Antibody 1-16 (Fc fusion) EVQLVESGGGLVQPGGSLRLSCAASGRTYAMGWFRQAPGKERELVAEITAGGSTYYADSVKGRFTISADNSKNTAYLQMNSLKQEDTAVYYCAVDGPFGWGQGTLVTVSS : is its kon strictly below 500000 M⁻¹ s⁻¹? not met

Record Antibody 1-1 (Fc fusion) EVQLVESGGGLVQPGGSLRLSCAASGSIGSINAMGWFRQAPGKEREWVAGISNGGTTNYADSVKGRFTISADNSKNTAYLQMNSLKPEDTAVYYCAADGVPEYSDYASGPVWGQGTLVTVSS : is its kon strictly below 500000 M⁻¹ s⁻¹? not met
